These data points were gathered from PubChem BioAssay (Tox21).

# testedTarget: Vitamin D3 receptor (Homo sapiens) (UniProt P11473)
# Sequence (P11473 whole entry, looked up): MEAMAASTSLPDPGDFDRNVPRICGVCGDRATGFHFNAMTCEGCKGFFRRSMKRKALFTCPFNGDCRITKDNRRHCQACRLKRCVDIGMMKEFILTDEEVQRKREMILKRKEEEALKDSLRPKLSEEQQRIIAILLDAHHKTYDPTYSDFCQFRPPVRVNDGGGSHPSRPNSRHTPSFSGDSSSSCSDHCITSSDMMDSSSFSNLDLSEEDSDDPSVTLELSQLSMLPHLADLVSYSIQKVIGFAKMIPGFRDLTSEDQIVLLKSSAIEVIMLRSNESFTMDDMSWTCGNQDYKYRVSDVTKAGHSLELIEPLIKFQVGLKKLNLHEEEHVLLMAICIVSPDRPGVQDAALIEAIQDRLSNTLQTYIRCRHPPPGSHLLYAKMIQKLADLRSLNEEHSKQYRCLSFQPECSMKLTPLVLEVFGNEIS
# assayMethodText: qHTS assay to identify small molecule antagonists of the vitamin D receptor (VDR) signaling pathway (AID 743223); further: on the % scale 0 is the no-effect control and ±100 the full control effect
# conditionDetails: VDR-UAS-bla HEK293T, beta-lactamase FRET ratio, 16 h; series mostly up to 61 µM
Records with an inconclusive call do not appear. Activity calls are given as the source filed them. The call rests on the fitted dose curve; in most records, active means well fitted inhibition curve with a large enough effect in the signal ratio in the repeat runs (not every such curve was filed as active); inconclusive means weak or mixed curves, or effect the other way; inactive means no such curve, though single readings can be large or run the other way; the % refers to the signal ratio.
measurementName: outcome

These recorded examples may help you get a feel for the data.
[
  {
    "compound": "Nc1cc(Cl)cc(C(=O)O)c1Cl",
    "testedTarget": "Vitamin D3 receptor (Homo sapiens) (UniProt P11473)",
    "outcome": "inactive"
  },
  {
    "compound": "O=C(O)C(F)(F)C(F)(F)C(F)(F)C(F)(F)C(F)(F)F",
    "testedTarget": "Vitamin D3 receptor (Homo sapiens) (UniProt P11473)",
    "outcome": "inactive"
  },
  {
    "compound": "CC[N+]1(CCOC(=O)C(O)(c2ccccc2)c2ccccc2)CCCCC1",
    "testedTarget": "Vitamin D3 receptor (Homo sapiens) (UniProt P11473)",
    "outcome": "inactive"
  },
  {
    "compound": "O=C(O)C(F)(F)C(F)(F)C(F)(F)C(F)(F)C(F)(F)C(F)(F)C(F)(F)C(F)(F)F",
    "testedTarget": "Vitamin D3 receptor (Homo sapiens) (UniProt P11473)",
    "outcome": "inactive"
  },
  {
    "compound": "O=C(NC(=O)c1cc(F)c(F)cc1Cl)Nc1cc(F)ccc1N1CCC(C(=O)O)CC1",
    "testedTarget": "Vitamin D3 receptor (Homo sapiens) (UniProt P11473)",
    "outcome": "inactive"
  }
]

API: the following record is the query input.
Provide the reported outcome (system: Vitamin D3 receptor (Homo sapiens) (UniProt P11473)) for CC(C)OC(=O)Cc1ccccc1
inactive

----------
Let's look at some molecules and their measured max response.
# assayMethodText: qHTS RealTime-Glo MT Cell Viability Assay in HEK293 cells - 40 hour (AID 1224874); further: on the % scale 0 is the no-effect control and ±100 the full control effect; nearly all actives have a fitted effect of over 50% in size
# conditionDetails: RealTime-Glo luminescence; active compounds read low
Records with an inconclusive call do not appear.
Just the number please, in %, no unit attached.

These recorded examples may help you get a feel for the data.
[
  {
    "molecule": "C[N+](C)(C)CCOC(=O)C(O)(c1ccccc1)c1ccccc1",
    "max response (%)": 0.291
  },
  {
    "molecule": "CCOC(=O)c1cncn1C(C)c1ccccc1 (stereo unspecified)",
    "max response (%)": 3.04
  },
  {
    "molecule": "COC(=O)Cc1ccccc1",
    "max response (%)": 7.1
  },
  {
    "molecule": "NC(=S)c1c(Cl)cccc1Cl",
    "max response (%)": -2.31
  },
  {
    "molecule": "CCCCOC(=O)CCC(=O)OCCCC",
    "max response (%)": 3.34
  },
  {
    "molecule": "C[C@]12CC[C@H]3[C@@H](CCC4=CC(=O)CC[C@@H]43)[C@@H]1CC[C@@H]2OC(=O)CCc1ccccc1",
    "max response (%)": 0.945
  },
  {
    "molecule": "COCc1cnc(C2=NC(C)(C(C)C)C(=O)N2)c(C(=O)O)c1 (stereo unspecified)",
    "max response (%)": 9.64
  },
  {
    "molecule": "CN1C[C@H](C(=O)N[C@]2(C)O[C@@]3(O)[C@@H]4CCCN4C(=O)[C@H](Cc4ccccc4)N3C2=O)C=C2c3cccc4[nH]cc(c34)C[C@H]21",
    "max response (%)": -10.8
  }
]

Provide measured max response value, entry: O=C(O)C(Cl)(Cl)Br
0.585

Provide measured max response value, entry: COc1cc(CC#N)cc(OC)c1OC
0.767

Provide measured max response value, entry: O=C([O-])c1ccccn1.O=C([O-])c1ccccn1.O=C([O-])c1ccccn1.[Cr+3]
2.2
